The reported numbers originate from ChEMBL document CHEMBL3112408.

- Tested on: HL-60
- assay.info: Cytotoxicity against human HL60 cells assessed as cell viability after 72 hrs by MTT assay
- Format: functional, cell-based
- recorded.conditions: HL-60, 72 h
Hi there, I'd appreciate the recorded IC50 for every entry that follows.
Provide only the numeric value, understood in µM.

**Query** State the recorded IC50 for this entry: CCC(C)(O)c1cn(C2CC(C)(C)OC3=C2C(=O)c2ccccc2C3=O)nn1 (stereo not given)
**Result** 2.12

**Query** Which IC50 reading was recorded for the molecule CC1(C)CC(Nc2ccc(Cl)cc2)C2=C(O1)C(=O)c1ccccc1C2=O (stereo not given) ?
**Result** 0.98

**Query** IC50 lookup needed for CCCCCc1cn(C2CC(C)(C)OC3=C2C(=O)c2ccccc2C3=O)nn1 (stereo not given) , thanks.
**Result** 1.37

**Query** If you can, please state the reported IC50 value of CC1(C)CC(Nc2cccc([N+](=O)[O-])c2)C2=C(O1)C(=O)c1ccccc1C2=O (stereo not given) .
**Result** 1.51

**Query** Quick one: IC50 of CC1(C)OC2=C(C(=O)c3ccccc3C2=O)C1Sc1ccccc1 (stereo not given) ?
**Result** 0.47

**Query** IC50 lookup needed for CCCCCCc1cn(C2C3=C(OC2(C)C)C(=O)c2ccccc2C3=O)nn1 (stereo not given) , thanks.
**Result** 1.9

**Query** Given the molecule COc1ccc(NC2CC(C)(C)OC3=C2C(=O)c2ccccc2C3=O)cc1 (stereo not given) , what is its reported IC50?
**Result** 0.19

====

- Test system: HL-60
- assay.info: Cytotoxicity against human HL60 cells assessed as cell viability after 72 hrs by MTT assay
- Format: functional, cell-based
- recorded.conditions: HL-60, 72 h
measured.quantity: IC50 (µM)
Output spec: scalar in µM, unitless text.

**Query** Quick check: IC50 of CC1(C)CC(Sc2ccccc2)C2=C(O1)C(=O)c1ccccc1C2=O (centres undefined) ?
**Result** 2.91

**Query** // query IC50 value for entry CC1(C)CC(Nc2ccc(Br)cc2)C2=C(O1)C(=O)c1ccccc1C2=O (centres undefined)
**Result** 4.73

**Query** Any idea what IC50 was measured for CC1(C)CC(n2cc(C3CCCCC3)nn2)C2=C(O1)C(=O)c1ccccc1C2=O (centres undefined) ?
**Result** 10.4

**Query** I have this compound here, CC(=O)OC[C@H]1OC(n2cc(CNC3=C(Br)C(=O)c4ccccc4C3=O)nn2)[C@H](OC(C)=O)[C@@H](OC(C)=O)[C@@H]1OC(C)=O (some centres undefined) , and I need its recorded IC50.
**Result** 1.19

====

- Tested on: V79
- assay.info: Cytotoxicity against chinese hamster V79 cells assessed as cell viability after 72 hrs by MTT assay
- Format: cell-based
- recorded.conditions: Cricetulus griseus, V79, 72 h
measured.quantity: pIC50
Please note pIC50 is a logarithmic value: minus log10 of concentration in mol/L. Answer with that number alone.

**Query** Field: pIC50 (V79). Entry: COc1cccc2c1C(=O)c1c(O)c3c(c(O)c1C2=O)C[C@@](O)(C(=O)CO)C[C@@H]3O[C@H]1C[C@H](N)[C@H](O)[C@H](C)O1 [DOXORUBICIN]
**Result** 6.62

**Query** Which pIC50 is reported with V79 for this entry: CC1(C)CC(Nc2cccc([N+](=O)[O-])c2)C2=C(O1)C(=O)c1ccccc1C2=O (centres undefined) ?
**Result** 5.41

**Query** Notebook entry, V79 assay: pIC50 of CC1(C)CC(Nc2ccc([N+](=O)[O-])cc2)C2=C(O1)C(=O)c1ccccc1C2=O (centres undefined) = ?
**Result** 5.79

**Query** So what pIC50 did CC1(C)CC(n2cc(C3CCCCC3)nn2)C2=C(O1)C(=O)c1ccccc1C2=O (centres undefined) get with V79?
**Result** 4.92

**Query** Item: CC1(C)CC(Nc2ccc(Br)cc2)C2=C(O1)C(=O)c1ccccc1C2=O (centres undefined) Test system: V79 Read-out: pIC50 Value: ?
**Result** 5.59

**Query** Give recorded pIC50 with V79 for the following molecule: CC1(C)OC2=C(C(=O)c3ccccc3C2=O)C1n1cc(C2CCCCC2)nn1 (centres undefined)
**Result** 5.21

**Query** Param readout = pIC50; param system = V79; param query = CC(=O)OC[C@H]1OC(n2cc(CNC3=C(Br)C(=O)c4ccccc4C3=O)nn2)[C@H](OC(C)=O)[C@@H](OC(C)=O)[C@@H]1OC(C)=O (some centres undefined) ; response: value
**Result** 5.44

**Query** Give recorded pIC50 with V79 for the following molecule: CCCCCCc1cn(C2C3=C(OC2(C)C)C(=O)c2ccccc2C3=O)nn1 (centres undefined)
**Result** 5.14

**Query** Param readout= pIC50; system= V79; entry= CCC(C)(O)c1cn(C2CC(C)(C)OC3=C2C(=O)c2ccccc2C3=O)nn1 (centres undefined) ; returns value.
**Result** 5.39

**Query** Which measured pIC50 belongs to O=C1C=C(n2cc(CNC3=C(Cl)C(=O)c4ccccc4C3=O)nn2)C(=O)c2ccccc21 , tested on V79?
**Result** 5.15

**Query** V79 / pIC50 / CC1(C)CC(Nc2ccc(I)cc2)C2=C(O1)C(=O)c1ccccc1C2=O (centres undefined) : value?
**Result** 5.59
